- Method: Toxicity to brine shrimp Artemia
- Format: in vivo, Artemia salina
- Conditions Used: Artemia salina (brine shrimp), in vivo, other: immersion in test solution; 12 h; read-out: Lethal activity to Artemia LC50
LC50 at 12 h vs 30 µg/mL: less than gives Yes; not less than gives No.

# example entries with known answers
molecule="COc1cc2ccc(=O)oc2cc1OS(=O)(=O)c1cc(Cl)c(Cl)cc1Cl [Compound 4h]" cat=No
molecule="COc1cc2cc(-c3ccc(F)cc3)c(=O)oc2cc1OS(=O)(=O)c1ccc(F)cc1 [Compound 5c]" cat=No
molecule="COc1cc2ccc(=O)oc2cc1OS(=O)(=O)c1ccc([N+](=O)[O-])cc1 [Compound 4g]" cat=Yes
molecule="COc1cc2ccc(=O)oc2cc1O [Compound 4, 7-hydroxy-6-methoxy-2H-chromen-2-one]" cat=Yes
molecule="COc1cc2cc(-c3ccc(F)cc3)c(=O)oc2cc1OS(=O)(=O)c1ccc(Cl)cc1 [Compound 5d]" cat=No
molecule="COc1cc2cc(-c3ccc(F)cc3)c(=O)oc2cc1OS(=O)(=O)c1cccs1 [Compound 5i]" cat=No

Here's the next entry for you.
For this molecule, is LC50 at 12 h lower than 30 µg/mL? COc1cc2ccc(=O)oc2cc1OS(=O)(=O)c1ccc(C(F)(F)F)cc1 [Compound 4f]
No

----------
Items are presented alongside their recorded LC50 at 6 h.
- Method: Toxicity to brine shrimp Artemia
- Format: in vivo, Artemia salina
- Conditions Used: Artemia salina (brine shrimp), in vivo, other: immersion in test solution; 6 h; read-out: Lethal activity to Artemia LC50
Respond numerically; units are µg/mL and should not be typed.

Take a look at these entries with their results.
molecule="COc1cc2ccc(=O)oc2cc1OS(=O)(=O)c1ccccc1 [Compound 4a]" readout_value=47
molecule="COc1cc2ccc(=O)oc2cc1OS(=O)(=O)c1ccc(Br)cc1 [Compound 4e]" readout_value=157
molecule="COc1cc2ccc(=O)oc2cc1O [Compound 4, 7-hydroxy-6-methoxy-2H-chromen-2-one]" readout_value=27.2
molecule="COc1cc2ccc(=O)oc2cc1OS(=O)(=O)c1cccs1 [Compound 4i]" readout_value=76.5

Form field LC50 at 6 h, entry COc1cc2cc(-c3ccc(F)cc3)c(=O)oc2cc1OS(=O)(=O)c1ccc(Br)cc1 [Compound 5e] : 114

Form field LC50 at 6 h, entry COc1cc2cc(-c3ccc(F)cc3)c(=O)oc2cc1OS(=O)(=O)c1ccccc1 [Compound 5a] : 95.8

Form field LC50 at 6 h, entry COc1cc2cc(-c3ccc(F)cc3)c(=O)oc2cc1OS(=O)(=O)c1cc(Cl)c(Cl)cc1Cl [Compound 5h] : 106

Form field LC50 at 6 h, entry COc1ccc(S(=O)(=O)Oc2cc3oc(=O)c(-c4ccc(F)cc4)cc3cc2OC)cc1 [Compound 5b] : 94.5

Form field LC50 at 6 h, entry COc1cc2cc(-c3ccc(F)cc3)c(=O)oc2cc1OS(=O)(=O)c1ccc([N+](=O)[O-])cc1 [Compound 5g] : 86.6

Form field LC50 at 6 h, entry COc1cc2cc(C(=O)Nc3ccc(Br)cc3)c(=O)oc2cc1O [Compound 7] : 52.3

Form field LC50 at 6 h, entry COc1cc2cc(C(C)=O)c(=O)oc2cc1OS(=O)(=O)c1ccc(Cl)cc1 [Compound 6d] : 45.5

Form field LC50 at 6 h, entry COc1cc2cc(-c3ccc(F)cc3)c(=O)oc2cc1OS(=O)(=O)c1cccs1 [Compound 5i] : 99.8

----------
- Method: Toxicity to brine shrimp Artemia
- Assay type: in vivo, Artemia salina
- Conditions Used: Artemia salina (brine shrimp), in vivo, other: immersion in test solution; 6 h; read-out: Lethal activity to Artemia LC50
Parameter Measured: LC50 at 6 h (µg/mL)
Respond numerically; units are µg/mL and should not be typed.

compound="COc1cc2ccc(=O)oc2cc1OS(=O)(=O)c1ccc([N+](=O)[O-])cc1 [Compound 4g]" parameter_measured="LC50 at 6 h" result_units=µg/mL readout_value=46.7
compound="COc1cc2cc(C(C)=O)c(=O)oc2cc1O [Compound 6]" parameter_measured="LC50 at 6 h" result_units=µg/mL readout_value=56.5

Please find the next compound below.
Form field LC50 at 6 h, entry COc1cc2ccc(=O)oc2cc1OS(=O)(=O)c1ccc(F)cc1 [Compound 4c] : 91.5

----------
- Assay Target: UniProt O42275
- Sequence (O42275 24-633): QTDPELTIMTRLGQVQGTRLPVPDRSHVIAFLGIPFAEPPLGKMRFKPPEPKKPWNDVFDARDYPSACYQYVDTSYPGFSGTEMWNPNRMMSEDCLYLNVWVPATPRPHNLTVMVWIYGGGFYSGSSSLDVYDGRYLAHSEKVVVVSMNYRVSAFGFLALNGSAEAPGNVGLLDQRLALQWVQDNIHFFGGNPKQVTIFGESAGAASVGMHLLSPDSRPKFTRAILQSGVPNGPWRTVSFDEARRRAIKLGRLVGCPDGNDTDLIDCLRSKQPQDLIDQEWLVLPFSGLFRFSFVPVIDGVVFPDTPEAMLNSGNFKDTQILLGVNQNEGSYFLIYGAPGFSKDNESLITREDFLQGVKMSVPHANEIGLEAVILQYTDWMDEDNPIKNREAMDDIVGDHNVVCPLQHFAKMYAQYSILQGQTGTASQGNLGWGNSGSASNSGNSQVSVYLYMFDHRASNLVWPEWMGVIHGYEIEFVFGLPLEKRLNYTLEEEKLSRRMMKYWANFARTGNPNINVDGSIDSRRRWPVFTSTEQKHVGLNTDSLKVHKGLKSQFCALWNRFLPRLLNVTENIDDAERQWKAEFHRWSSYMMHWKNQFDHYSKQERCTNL
Each entry falls in a class defined on IC50; the bands are Low (below 200 µM), Mid (200 µM to below 400 µM), High (400 µM or more)

molecule=COc1cc2cc(-c3ccc(F)cc3)c(=O)oc2cc1OS(=O)(=O)c1ccc(Cl)cc1 assay_target="UniProt O42275" cat=Low
molecule=COc1cc2cc(-c3ccc(F)cc3)c(=O)oc2cc1OS(=O)(=O)c1cccs1 assay_target="UniProt O42275" cat=Mid
molecule=COc1cc2ccc(=O)oc2cc1OS(=O)(=O)c1ccc2ccccc2c1 assay_target="UniProt O42275" cat=Low
molecule=COc1ccc(S(=O)(=O)Oc2cc3oc(=O)ccc3cc2OC)cc1 assay_target="UniProt O42275" cat=Mid
molecule=COc1cc2ccc(=O)oc2cc1OS(=O)(=O)c1ccc(F)cc1 assay_target="UniProt O42275" cat=Mid

Here's the next entry for you.
Hey, which category is `COc1cc2cc(-c3ccc(F)cc3)c(=O)oc2cc1OS(=O)(=O)c1ccc2ccccc2c1` in, do you know?
Low

----------
- Method: Toxicity to brine shrimp Artemia
- Type: in vivo, Artemia salina
- Conditions Used: Artemia salina (brine shrimp), in vivo, other: immersion in test solution; 12 h; read-out: Lethal activity to Artemia LC50
LC50 at 12 h vs 30 µg/mL: less than gives satisfied; not less than gives not satisfied.

# example entries with known answers
compound="COc1cc2cc(-c3ccc(F)cc3)c(=O)oc2cc1OS(=O)(=O)c1cc(Cl)c(Cl)cc1Cl [Compound 5h]" cat="not satisfied"
compound="COc1cc2cc(-c3ccc(F)cc3)c(=O)oc2cc1OS(=O)(=O)c1ccccc1 [Compound 5a]" cat="not satisfied"
compound="COc1ccc(S(=O)(=O)Oc2cc3oc(=O)ccc3cc2OC)cc1 [Compound 4b]" cat=satisfied
compound="COc1cc2cc(C(C)=O)c(=O)oc2cc1OS(=O)(=O)c1cc(Cl)c(Cl)cc1Cl [Compound 6h]" cat="not satisfied"
compound="COc1cc2cc(C(=O)Nc3ccc(Br)cc3)c(=O)oc2cc1OS(=O)(=O)c1ccccc1 [Compound 7a]" cat="not satisfied"
compound="COc1cc2ccc(=O)oc2cc1OS(=O)(=O)c1ccc(Br)cc1 [Compound 4e]" cat="not satisfied"
compound="COc1cc2cc(-c3ccc(F)cc3)c(=O)oc2cc1OS(=O)(=O)c1ccc([N+](=O)[O-])cc1 [Compound 5g]" cat="not satisfied"

For this compound, is LC50 at 12 h lower than 30 µg/mL? COc1cc2cc(C(C)=O)c(=O)oc2cc1OS(=O)(=O)c1ccc(Cl)cc1 [Compound 6d]
satisfied

----------
- Method: Toxicity to brine shrimp Artemia
- Type: in vivo, Artemia salina
- Conditions Used: Artemia salina (brine shrimp), in vivo, other: immersion in test solution; 6 h; read-out: Lethal activity to Artemia LC50
- Procedure: The toxicity of the title compounds to the brine shrimp A. salina was evaluated according to the reported method. […] Subsequently, approximately 50 hatched (10 h instar) brine shrimp were transferred into each pore of a 24-well plate filled with the test solutions. […] The dead insects were recorded under a stereoscope, and the corrected mortalities of A. salina treated with the compounds were calculated.
Parameter Measured: LC50 at 6 h (µg/mL)
Respond numerically; units are µg/mL and should not be typed.

record_smiles=COc1cc2cc(C(C)=O)c(=O)oc2cc1OS(=O)(=O)c1cc(Cl)c(Cl)cc1Cl readout_value=48.5
record_smiles=COc1cc2ccc(=O)oc2cc1OS(=O)(=O)c1ccc(C(F)(F)F)cc1 readout_value=109
record_smiles=COc1cc2cc(-c3ccc(F)cc3)c(=O)oc2cc1OS(=O)(=O)c1ccc(Cl)cc1 readout_value=72.8
record_smiles=COc1cc2cc(C(=O)Nc3ccc(Br)cc3)c(=O)oc2cc1OS(=O)(=O)c1ccc(Cl)cc1 readout_value=54.2

Form field LC50 at 6 h, entry `COc1cc2cc(-c3ccc(F)cc3)c(=O)oc2cc1OS(=O)(=O)c1ccc2ccccc2c1` : 77.9

----------
Items are presented alongside their recorded LC50 at 6 h.
- Method: Toxicity to brine shrimp Artemia
- Assay type: in vivo, Artemia salina
- Conditions Used: Artemia salina (brine shrimp), in vivo, other: immersion in test solution; 6 h; read-out: Lethal activity to Artemia LC50
Respond numerically; units are µg/mL and should not be typed.

record_smiles=COc1cc2cc(-c3ccc(F)cc3)c(=O)oc2cc1OS(=O)(=O)c1ccc(C(F)(F)F)cc1 parameter_measured="LC50 at 6 h" readout_value=71.5

Form field LC50 at 6 h, entry `COc1cc2cc(C(=O)Nc3ccc(Br)cc3)c(=O)oc2cc1OS(=O)(=O)c1ccccc1` : 57.6

Form field LC50 at 6 h, entry `COc1cc2cc(-c3ccc(F)cc3)c(=O)oc2cc1OS(=O)(=O)c1ccc(F)cc1` : 94.7

Form field LC50 at 6 h, entry `COc1cc2ccc(=O)oc2cc1OS(=O)(=O)c1ccc(Cl)cc1` : 33.6

Form field LC50 at 6 h, entry `COc1ccc(S(=O)(=O)Oc2cc3oc(=O)ccc3cc2OC)cc1` : 38.6

Form field LC50 at 6 h, entry `COc1cc2ccc(=O)oc2cc1OS(=O)(=O)c1ccc2ccccc2c1` : 13.6

Form field LC50 at 6 h, entry `COc1cc2ccc(=O)oc2cc1OS(=O)(=O)c1cc(Cl)c(Cl)cc1Cl` : 131
